- testSystem: KRAS WT (Homo sapiens (Human), UniProt P01116)
- Sequence (P01116-2 other isoform, or with tags, fused parts or gaps): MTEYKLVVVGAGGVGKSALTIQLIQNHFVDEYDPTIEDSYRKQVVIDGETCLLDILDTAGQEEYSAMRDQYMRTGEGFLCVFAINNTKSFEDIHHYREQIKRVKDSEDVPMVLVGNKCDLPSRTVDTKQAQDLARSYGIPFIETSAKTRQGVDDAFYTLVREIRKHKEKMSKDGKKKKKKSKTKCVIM
- experimentalProtocol: KRAS WT Biochemical Assay, BODIPY-GDP Exchange TR-FRET (Example 502; 0.06 nM KRAS WT, 15 nM GDP, 300 nM SOS1, 120-minute incubation)
- assaySetup: read-out: KRas HTRF IC50
# IC50 listing for each entry below

>  <structureSmilesString>
Cc1cc(N)c(F)c(-c2nc3c4c(nc(OC[C@@H]5CC[C@H]6COCCN65)nc4c2F)N2C[C@H]4CC[C@H](N4)[C@H]2[C@H](C)O3)c1Cl

>  <IC50 / µM>
0.906

$$$$
>  <structureSmilesString>
Cc1c(F)c(N)cc(-c2nc3c4c(nc(OCCC5(N6CCOCC6)COC5)nc4c2F)N2C[C@H]4CC[C@H](N4)[C@H]2[C@H](C)O3)c1C(F)(F)F

>  <IC50 / µM>
5.45

$$$$
>  <structureSmilesString>
Cc1c(F)c(N)cc(-c2nc3c4c(nc(OC[C@@]56CCCN5C[C@H](F)C6)nc4c2F)N2C[C@H]4CC[C@H](N4)[C@H]2[C@H](C)O3)c1Cl

>  <IC50 / µM>
0.0143

$$$$
>  <structureSmilesString>
Cc1c(F)c(N)c(F)c(-c2nc3c4c(nc(OC[C@@H]5CC[C@H]6COCCN65)nc4c2F)N2C[C@H]4CC[C@H](N4)[C@H]2[C@H](C)O3)c1C(F)(F)F

>  <IC50 / µM>
0.0758

$$$$
>  <structureSmilesString>
Cc1c(F)c(N)cc(-c2nc3c4c(nc(OC[C@@H]5CC[C@H]6COCCN65)nc4c2F)N2C[C@H]4CC[C@H](N4)[C@H]2[C@H](C)O3)c1CC(F)(F)F

>  <IC50 / µM>
0.0656

$$$$
